assayed_target: PPARG (peroxisome proliferator activated receptor-gamma), GST-PPARG-LBD (Homo sapiens, UniProt P37231)
Construct: 15 μL of 5 nM GST-PPARG-LBD and 5 nM Tb-GST-antibody were added; purchased Invitrogen PV4894
Sequence (P37231 238-503 limits assumed): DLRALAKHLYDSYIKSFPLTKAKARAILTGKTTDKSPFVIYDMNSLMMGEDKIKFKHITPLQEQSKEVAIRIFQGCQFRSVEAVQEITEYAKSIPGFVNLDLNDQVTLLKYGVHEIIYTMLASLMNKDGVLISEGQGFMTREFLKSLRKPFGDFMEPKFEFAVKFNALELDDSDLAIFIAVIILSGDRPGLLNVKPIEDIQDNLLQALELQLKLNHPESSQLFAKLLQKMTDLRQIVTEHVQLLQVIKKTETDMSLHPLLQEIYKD
experiment_description: LanthaScreen TR-FRET PPARG Competitive Binding Assay
Parameters: key: “+” indicates the degree of the binding activity, and as the number of “+” increases, the binding activity is stronger; ++: “+” indicates the degree of the binding activity, and as the number of “+” increases, the binding activity is stronger; +++: “+” indicates the degree of the binding activity, and as the number of “+” increases, the binding activity is stronger; ++++: “+” indicates the degree of the binding activity, and as the number of “+” increases, the binding activity is stronger
condition: degree of binding activity
measured_property: Binding assay (1 μLM)

O=C(NCc1cccnc1)c1ccc2c(c1)OCCN2Cc1ccc(-c2ccccc2C(=O)O)cc1 +
NC(=O)c1ccccc1-c1ccc(CN2CCOc3cc(C(=O)NCc4ccccc4Br)ccc32)cc1 ++
C[C@H](NC(=O)c1ccc2c(c1)CCCN2Cc1ccccc1-c1ccc(C(N)=O)cc1)c1ccc([N+](=O)[O-])cc1 +
O=C(NCc1ccccc1Br)c1ccc2c(c1)CCCN2Cc1ccc(-c2ccccc2C(=O)O)cc1 ++++
C[C@H](NC(=O)c1ccc2c(c1)OCCN2Cc1ccccc1-c1ccc(C(=O)O)cc1)c1ccccc1 ++

[ask] // query Binding assay (1 μLM) value for entry `C[C@H](NC(=O)c1ccc2c(c1)CCCN2Cc1ccc(-c2ccccc2C(N)=O)cc1)c1ccc(F)c(F)c1`
[reply] +++

[ask] // query Binding assay (1 μLM) value for entry `C[C@H](NC(=O)c1ccc2c(c1)OCCN2Cc1ccccc1-c1ccc(C(=O)O)cc1)c1ccc2ccccc2c1`
[reply] +++

[ask] // query Binding assay (1 μLM) value for entry `C[C@H](NC(=O)c1ccc2c(c1)CCCN2Cc1ccccc1-c1ccc(C(N)=O)cc1)c1ccc(C#N)cc1`
[reply] ++

[ask] // query Binding assay (1 μLM) value for entry `C[C@H](NC(=O)c1ccc2c(c1)CCCN2Cc1ccc(-c2ccccc2C(=O)O)cc1F)c1ccccc1`
[reply] ++++

[ask] // query Binding assay (1 μLM) value for entry `C[C@H](NC(=O)c1ccc2c(c1)CCCN2Cc1ccc(-c2ccccc2C(N)=O)cc1F)c1ccccc1`
[reply] +++

[ask] // query Binding assay (1 μLM) value for entry `C[C@H](NC(=O)c1ccc2c(c1)OCCN2Cc1ccc(-c2ccccc2C(=O)O)cc1)c1cccc(F)c1`
[reply] ++

[ask] // query Binding assay (1 μLM) value for entry `C[C@H](NC(=O)c1ccc2c(c1)CCCN2Cc1ccc(-c2ccccc2C(=O)O)cc1)c1cccc(OC(F)(F)F)c1`
[reply] +++

[ask] // query Binding assay (1 μLM) value for entry `C[C@H](NC(=O)c1ccc2c(c1)CCCN2Cc1ccc(-c2ccccc2C(=O)O)cc1)c1cccc(Cl)c1`
[reply] ++++

[ask] // query Binding assay (1 μLM) value for entry `O=C(NCc1ccc(Br)cc1)c1ccc2c(c1)OCCN2Cc1ccc(-c2ccccc2C(=O)O)cc1`
[reply] +

[ask] // query Binding assay (1 μLM) value for entry `C[C@H](NC(=O)c1ccc2c(c1)CCCN2Cc1ccccc1-c1ccc(C(N)=O)cc1)c1ccc2ccccc2c1`
[reply] ++
